Where do these numbers come from? They come from ChEMBL document CHEMBL1142717.

As shown below, each of these molecules has a reported pKi value.
tested.on: Neuronal acetylcholine receptor; alpha3/beta2 (Homo sapiens, UniProt P17787+P32297)
Sequence (P17787 whole entry): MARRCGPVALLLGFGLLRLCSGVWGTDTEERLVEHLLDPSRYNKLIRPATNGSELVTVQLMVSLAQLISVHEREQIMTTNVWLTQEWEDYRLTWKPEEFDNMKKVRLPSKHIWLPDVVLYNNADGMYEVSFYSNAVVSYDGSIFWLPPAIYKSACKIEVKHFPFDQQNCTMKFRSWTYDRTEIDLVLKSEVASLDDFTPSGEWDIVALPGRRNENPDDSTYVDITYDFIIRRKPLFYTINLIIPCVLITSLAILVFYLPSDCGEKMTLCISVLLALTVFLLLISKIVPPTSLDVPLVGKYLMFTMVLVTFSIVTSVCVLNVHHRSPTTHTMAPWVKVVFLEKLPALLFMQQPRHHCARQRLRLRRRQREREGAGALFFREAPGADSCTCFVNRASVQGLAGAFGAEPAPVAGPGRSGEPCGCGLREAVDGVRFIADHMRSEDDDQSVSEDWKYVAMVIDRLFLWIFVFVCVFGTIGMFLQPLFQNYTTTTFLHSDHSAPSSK
Sequence (P32297 whole entry): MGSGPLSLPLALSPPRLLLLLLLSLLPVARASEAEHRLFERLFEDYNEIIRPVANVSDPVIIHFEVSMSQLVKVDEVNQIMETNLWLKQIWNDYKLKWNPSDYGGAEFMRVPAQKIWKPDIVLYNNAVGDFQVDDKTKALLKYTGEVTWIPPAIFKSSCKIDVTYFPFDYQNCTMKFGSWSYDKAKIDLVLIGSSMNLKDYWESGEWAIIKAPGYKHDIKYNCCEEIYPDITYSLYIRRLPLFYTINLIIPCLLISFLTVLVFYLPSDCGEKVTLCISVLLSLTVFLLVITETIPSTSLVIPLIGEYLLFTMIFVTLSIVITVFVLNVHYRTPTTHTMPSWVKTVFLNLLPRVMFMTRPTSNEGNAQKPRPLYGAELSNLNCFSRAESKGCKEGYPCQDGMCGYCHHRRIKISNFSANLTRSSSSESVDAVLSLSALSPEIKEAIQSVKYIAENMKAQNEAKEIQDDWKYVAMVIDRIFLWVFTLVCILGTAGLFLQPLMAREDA
procedure.summary: Inhibition of [3H]epibatidine binding to Nicotinic acetylcholine receptor alpha3-beta2
pKi field: float, defined as -log10 of concentration (mol/L).

Here is how some molecules turned out for pKi.
{"columns": ["molecule", "tested.on", "pKi"],
 "data": [
  ["CN1CCC[C@H]1COc1cncc(C#CCCCCO)c1", "Neuronal acetylcholine receptor; alpha3/beta2 (Homo sapiens, UniProt P17787+P32297)", 7.89],
  ["CN1CCC[C@H]1COc1cccnc1", "Neuronal acetylcholine receptor; alpha3/beta2 (Homo sapiens, UniProt P17787+P32297)", 8.11]
]}

For OCCCCC#Cc1cncc(C2CC3CCC2N3)c1 (stereo not drawn) , what is its reported pKi?
9.64

* * *

procedure.summary: Binding affinity against nicotinic acetylcholine receptor subtype alpha2-beta2
measurement.label: Ki (nM)
Number only, in nM; omit the unit.

For OCCCCC#Cc1cncc(C2CC3CCC2N3)c1 (stereo unspecified) , what is its reported Ki?
0.13

* * *

As shown below, each of these compounds has a reported Ki value.
procedure.summary: Inhibition of [3H]epibatidine binding to Nicotinic acetylcholine receptor alpha2-beta4
Number only, in nM; omit the unit.

{"columns": ["compound", "Ki [nM]"],
 "data": [
  ["CN1CCC[C@H]1COc1cccnc1", 320],
  ["OCCCCC#Cc1cncc(C2CC3CCC2N3)c1 (stereo unspecified)", 28],
  ["CN1CCC[C@H]1COc1cncc(C#CCCCCO)c1", 3600],
  ["CN1CCC[C@H]1COc1cncc(C#CC(C)(C)O)c1", 8400],
  ["Clc1ccc(C2CC3CCC2N3)cn1 (stereo unspecified) [EPIBATIDINE]", 0.095]
]}

For CN1CCC[C@H]1COc1cncc(C#Cc2ccccc2)c1 , what is its reported Ki?
500

For CN1CCC[C@H]1COc1cncc(C#CCO)c1 , what is its reported Ki?
1900

For CN1CCC[C@H]1COc1cncc(C#CCCCCF)c1 , what is its reported Ki?
3700

For CCCCC#Cc1cncc(OC[C@@H]2CCCN2C)c1 , what is its reported Ki?
1900

For CN1CCC[C@H]1COc1cncc(C#CCCCCCCCCO)c1 , what is its reported Ki?
6200

For C#Cc1cncc(OC[C@@H]2CCCN2C)c1 , what is its reported Ki?
750

* * *

procedure.summary: Dissociation constant against Nicotinic acetylcholine receptor alpha4-beta4
measurement.label: pKd
pKd field: float, defined as -log10 of concentration (mol/L).

For Clc1ccc(C2CC3CCC2N3)cn1 (stereo unspecified) [EPIBATIDINE] , what is its reported pKd?
10.05

* * *

Organism: Rattus norvegicus
procedure.summary: Selectivity against Nicotinic acetylcholine receptor subtypes alpha3-beta4 and alpha4-beta2
measurement.label: Selectivity

{"columns": ["smiles.code", "measured.result"],
 "data": [
  ["CCCCC#Cc1cncc(OC[C@@H]2CCCN2C)c1", 28600],
  ["CN1CCC[C@H]1COc1cncc(C#CCCCCCCCCO)c1", 10800],
  ["CN1CCC[C@H]1COc1cncc(C#CCCCCF)c1", 92600],
  ["CN1CCC[C@H]1COc1cncc(C#Cc2ccccc2)c1", 15900],
  ["CN1CCC[C@H]1COc1cncc(C#CCCCCO)c1", 74100],
  ["CN1CCC[C@H]1COc1cccnc1", 737]
]}

Moving on to another compound below.
For CN1CCC[C@H]1COc1cncc(C#CCO)c1 , what is its reported Selectivity?
24700
